Target: TbMCP-1 (Trypanosoma brucei, UniProt Q386R0)
Sequence (Q386R0 entry or part of it): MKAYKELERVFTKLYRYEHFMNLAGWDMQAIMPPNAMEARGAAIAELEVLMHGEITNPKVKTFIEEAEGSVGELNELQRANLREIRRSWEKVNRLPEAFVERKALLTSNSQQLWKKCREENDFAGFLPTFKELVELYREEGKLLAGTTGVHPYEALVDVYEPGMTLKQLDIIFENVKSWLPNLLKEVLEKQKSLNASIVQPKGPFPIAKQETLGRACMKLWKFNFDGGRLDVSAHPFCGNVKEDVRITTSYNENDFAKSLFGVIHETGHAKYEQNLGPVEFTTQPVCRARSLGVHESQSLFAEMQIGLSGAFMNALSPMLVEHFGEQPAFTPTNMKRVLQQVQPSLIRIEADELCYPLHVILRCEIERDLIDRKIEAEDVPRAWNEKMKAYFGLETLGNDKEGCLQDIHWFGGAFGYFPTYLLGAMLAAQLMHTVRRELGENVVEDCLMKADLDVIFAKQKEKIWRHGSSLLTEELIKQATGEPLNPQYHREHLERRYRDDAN
Assay: Continuous fluorogenic (FRET) TbMCP-1 assay with Abz-RFFK(Dnp)-OH, primary and secondary screening
Format: biochemical
Method: TcMCP-1 (MEROPS ID: M32.003) and TbMCP-1 were expressed as GST fusion proteins in E. coli BL21 (DE3) Codon Plus and purified as previously described. […] Then, 40 μL of 100 mM MOPS, 0,01% Triton X-100 pH 7,2 containing TbMCP-1 (2,50 nM) or TcMCP-1 (0,34 nM) were added to each well, plates were homogenized (30 seg, orbital, medium intensity) and each well subjected to a single autofluorescence read (ex/em = 320/420 nm). […]
Criterion: IC50 strictly under 30 µM. Met: fulfilled. Not met: not fulfilled.

Use the examples below as a reference point.
{"Compound": "C[C@@H](Oc1cc(-n2cnc3ccc(O[C@H]4CCNC4)cc32)sc1C(N)=O)c1ccccc1Cl", "Assigned Category": "not fulfilled"}
{"Compound": "Cl.NS(=O)(=O)c1ccc(Nc2ncc3cccc(OC4CCNCC4)c3n2)cc1", "Assigned Category": "fulfilled"}
{"Compound": "CN(CC1CCCO1)S(=O)(=O)c1ccc(C(=O)Nc2nc(-c3ccccn3)cs2)cc1 (stereo not drawn)", "Assigned Category": "not fulfilled"}
{"Compound": "Cl.Cl.O=c1ccc2ccc(F)c3c2n1C[C@H]3CN1CCN(CC(O)c2cc3c(cn2)OCS3)CC1 (stereo partly drawn)", "Assigned Category": "fulfilled"}
{"Compound": "CCOC(=O)c1cn[nH]c1S(=O)(=O)N1CCC1c1ccccc1 (stereo not drawn)", "Assigned Category": "fulfilled"}
{"Compound": "COc1ccc2ncc(Cl)c(CCN3CC[C@@H](NCc4cc5c(cn4)OCS5)[C@H](O)C3)c2n1", "Assigned Category": "fulfilled"}

Could you please tell me whether IC50 recorded for CN(C)S(=O)(=O)c1ccc(Cl)c(C(=O)Nc2nc(-c3ccccn3)cs2)c1 is less than 30 µM?
not fulfilled

This collection of values is drawn from paper PMC6675120.
